tested on: BT-549 breast; assay: NCI-60 one-dose screen, 48 h (100 = growth as untreated, 0 = no growth, -100 = all killed); settings: 10 µM unless noted
About 83,000 compounds went through this panel and 20% of them were active in at least one assay; those are over-represented in the sample as a whole.
// values below are reported growth

>  <Molecule>
COc1ccc(-c2ccnc(SCc3cc4cc(Cl)ccc4[nH]c3=O)n2)cc1

>  <System Tested>
BT-549 breast

>  <growth [%]>
-18.5

$$$$
>  <Molecule>
C=C1CC[C@@H]2[C@]3(C)COC(c4cn(-c5ccccc5)nc4-c4ccccc4)O[C@@H]3CC[C@@]2(C)[C@@H]1C/C=C1/C(=O)OC[C@H]1O (some centres undefined)

>  <System Tested>
BT-549 breast

>  <growth [%]>
-88.9

$$$$
>  <Molecule>
CC12CC[C@@H]3[C@]4(C)COC(c5cn[nH]c5-c5ccc(Cl)cc5)O[C@@H]4CC[C@@]3(C)[C@@H]1CC(C1=CCOC1=O)O2 (some centres undefined)

>  <System Tested>
BT-549 breast

>  <growth [%]>
5.38

$$$$
>  <Molecule>
COc1ccc2c(c1)c(/C=N/Nc1ccc3ccccc3n1)cn2C

>  <System Tested>
BT-549 breast

>  <growth [%]>
51.4

$$$$
>  <Molecule>
CSc1ccccc1NC(=O)c1ccc2nn(/C(C#N)=C/c3ccccn3)nc2c1

>  <System Tested>
BT-549 breast

>  <growth [%]>
-98.4

$$$$
>  <Molecule>
O=C(COc1ccc(NC(=O)Nc2ccc(Cl)cc2)cc1)N/N=C/c1ccccc1

>  <System Tested>
BT-549 breast

>  <growth [%]>
-51.4

$$$$
>  <Molecule>
O=c1oc2ccc(Br)cc2cc1C1=CSc2nc3sc4c(c3c(=O)n2N=C1)CCCC4

>  <System Tested>
BT-549 breast

>  <growth [%]>
95.4

$$$$
>  <Molecule>
COc1ccc2c(c1)c(-c1cc3nc(-c4cn(C)c5ncc(Br)cc45)cc(N)n3n1)cn2C

>  <System Tested>
BT-549 breast

>  <growth [%]>
-78.5

$$$$
>  <Molecule>
CC(=O)Nc1ccc(-c2nc3cc(-c4ccc(O)cc4)ccc3n2C)cc1

>  <System Tested>
BT-549 breast

>  <growth [%]>
65.6

$$$$
>  <Molecule>
COc1ccc2c(c1)C(=N/N=C(\C)c1ccc(OC)c(S(N)(=O)=O)c1)C(=O)N2

>  <System Tested>
BT-549 breast

>  <growth [%]>
59

$$$$
>  <Molecule>
CC(=O)Oc1ccccc1C(=O)[Se]CC(=O)Nc1cccc(C(F)(F)F)c1

>  <System Tested>
BT-549 breast

>  <growth [%]>
-91

$$$$
>  <Molecule>
COc1ccc(/C=C/c2nc3ccccc3nc2Nc2cccc(C)c2)cc1

>  <System Tested>
BT-549 breast

>  <growth [%]>
99.9

$$$$
>  <Molecule>
CC(C)c1ccc2c(N)c(C(=O)Nc3ccc(C(F)(F)F)cn3)sc2n1

>  <System Tested>
BT-549 breast

>  <growth [%]>
42.1

$$$$
>  <Molecule>
CCCSc1nc(NCCc2c[nH]c3ccccc23)c(C#N)c(-c2ccc(F)cc2)n1

>  <System Tested>
BT-549 breast

>  <growth [%]>
64.5

$$$$
>  <Molecule>
CN(C)CCn1c2ccccc2c2nc3ccc([N+](=O)[O-])cc3nc21

>  <System Tested>
BT-549 breast

>  <growth [%]>
12.5

$$$$
>  <Molecule>
COc1ccc(NC(=O)[C@H](C)N)cc1C(=O)Nc1cccc(C2CC(=O)c3c(cc(OC)c(OC)c3OC)O2)c1 (some centres undefined)

>  <System Tested>
BT-549 breast

>  <growth [%]>
67.3

$$$$
>  <Molecule>
O=C(c1ccc(Cl)cc1)c1ccc(OCCCN2CCN(c3ccncc3)CC2)cc1

>  <System Tested>
BT-549 breast

>  <growth [%]>
26.9

$$$$
>  <Molecule>
Cc1nc(Nc2ncc(C(=O)Nc3c(C)cccc3Cl)s2)cc(N2CCN(CCCNC(=O)COc3ccc(C4CCC(=O)NC4=O)cc3)CC2)n1 (centres undefined)

>  <System Tested>
BT-549 breast

>  <growth [%]>
68.5

$$$$
>  <Molecule>
CN(C)CCn1c2ccccc2c2nc3cc(C(F)(F)F)ccc3nc21

>  <System Tested>
BT-549 breast

>  <growth [%]>
62.2

$$$$
